Values compiled from patent US20220242958A1.

Target: T1, recombinant IL-3Rα ectodomain (Homo sapiens, UniProt P26951)
T1 construct: Immobilisation of recombinant IL-3Rα ectodomain (Sino Biologicals) was done until 761 RU; purchased Sino Biologicals
T1 sequence (P26951 19-305 limits assumed): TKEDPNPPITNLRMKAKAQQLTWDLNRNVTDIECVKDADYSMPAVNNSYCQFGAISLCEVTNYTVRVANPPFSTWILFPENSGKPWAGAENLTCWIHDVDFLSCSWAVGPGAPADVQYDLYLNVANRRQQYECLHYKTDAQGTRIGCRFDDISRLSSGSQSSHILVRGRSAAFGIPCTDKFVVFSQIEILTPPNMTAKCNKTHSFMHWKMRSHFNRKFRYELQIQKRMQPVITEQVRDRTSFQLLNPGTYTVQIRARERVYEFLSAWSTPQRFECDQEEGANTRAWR
Test: SPR (ProteOn) on recombinant IL-3Rα ectodomain
Type: binding
Protocol: The affinities of CD123 specific Nanobodies were further investigated via Surface Plasmon Resonance (SPR) at ProteOn. Immobilisation of recombinant IL-3Rα ectodomain (Sino Biologicals) was done until 761 RU. The Nanobodies were applied at a highest concentration of 1 μM, followed by a three-fold titration, covering 5 further concentrations ranging from 1 μM to 4.1 nM. […]
Metric name: SPR - IL-3Ra ka (M⁻¹ s⁻¹)

Molecule	Endpoint result
55F03: CD123 building block, SEQ ID NO: 13 (protein) VHH: EVQLVESGGGLVQAGGPLRLSCAASGRTFSSYVMGWFRQAPGKEREFVAAIYWSNGKTQYTDSVKGRFTISGDNAKNTVYLQMNSLNPEDTAVYYCVADKDETGFRTLPIAYDYWGLGTQVTVSS	42500
55B04: CD123 building block, SEQ ID NO: 9 (protein) VHH: EVQLVESGGGLVQPGGSLRLSCAASGINFRFNSMGWWRRRAPGKEREWVAAITSGDITNYRDSVRGRFTISRDNVKNTVYLQMNTLKLEDTAVYYCNTFPPIADYWGLGTQVTVSS	504000
50F07: CD123 building block, SEQ ID NO: 12 (protein) VHH: EVQLVESGGGLVQPGGSLRLSCTGSGSTFSINAMGWYRQAPGKQRELVAAITSGGRTNYADSVKGRFTISRDNSKNTVYLQMNSLRPEDTAVYYCNARISAGTAFWLWSDYEYWGLGTLVTVSS	102000
